ASSAY SYSTEM: T1, monkey GPC3-His protein (monkey)
T1 construct: Bought recombinant protein; also called monkey GPC3 protein
TEST PROTOCOL: ELISA, monkey GPC3-His coated;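 further: Plate-coated antigen at 1 µg/mL, antibody binding 2 h at 37 °C, detected with HRP-labeled secondary antibody and TMB, absorbance at 450 nm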
READOUT LABEL: OD450 at 0.01 nM (OD450)
Give bare numbers, in OD450.

Answered examples (2):
1. F1.62.9 (antibody, human IgG1, kappa, V domains shown, Human-murine chimeric antibody) VH: QVQLQQSDAELVKPGASVKISCKVSGYIFTDHTIHWMKQRPEQGLEWIGYIYPRDGSIKYNENFKGKATLTADKSSSATYMQLNSLTSEDSAVYFCARPIYYDYAYYFDYWGQGTTLTVSS VL: DVVMTQSPLSLPVSLGDQASISCRSRQSLVHSNGNTYLHWYLQKPGQSPKVLIYKVSNRFSGVPDRFSGSGSGTDFTLKISRVEAEDLGVYFCSQSTHVPYTFGGGTKLEIKR : 0.39
2. F1.118.4 (antibody, human IgG1, kappa, V domains shown, Human-murine chimeric antibody) VH: QVQLQQSGAELAKPGASVKLSCKASGYSFTSYWIHWVKQRPGQGLEWIGYINPSSGYTKYNQKFKDKATLTADKSSSTAYMQLSSLTYEDSAVYYCARFGSSSFYFDYWGQGTTLTVSS VL: DIVLTQSPASLAVSLGQRATISCRASQSVSSSSYSYMHWYQQKPGQPPKLLIKYASNLDSGVPARFSGSGSGTDFTLNIHPVEEEDTATYYCQHSWEIPAFGGGTKLEIKR : 0.28

Hi, could you look up OD450 at 0.01 nM for each item in my list?
1. F4.18.4 (antibody, human IgG1, kappa, V domains shown, Human-murine chimeric antibody) VH: QVQLHQSGAEMAKPGASVNLSCKTSGFTFTDYGISWVKQRTRQGLEWIGDIYPRHINIYYNEKFKDKATLTADRSSSTAYMELRSMTSEDSAVYFCARRGTTGRGALDYWGQGTSLTVSS VL: DILLTQSPAILSVSPGERVSFSCRASQSIGTSIHWYQQRTNGSPRLLIKYAFESISGIPSRFGGSGSRTDFTLTINSVESEDIADYYCQQTYNWPYTFGGGTKLEIKR
2. F2.23.8 (antibody, human IgG1, kappa, V domains shown, Human-murine chimeric antibody) VH: QVQLQQSGAELVRPGASVKLSCKASGYTFTDYEMHWVKQTPVHGLEWFGAIDPETGGTAYNQKFRAKATLTADKSSSTAYMELRSLTSEDSAVYYCTRFYSFAYWGQGTLVTVSA VL: DVVMTQTPLSLPVSLGDQASISCRSSQSLVHSNGNTYLQWYLQKPGQSPKLLIYKVSNRFSGVPDRFSGSGSGTDFTLKITRVEAEDLGVYFCSQSTHVPYTFGSGTKLEIKR
3. F1.115.8 (antibody, human IgG1, kappa, V domains shown, Human-murine chimeric antibody) VH: EVQLQQSGPELVKPGASVKMSCKASGYTFTEYYMHWVKQSHGKSLEWIGYIYPNNGGNGYNQKFKGKATLTVDKSSSTAYMGLRSLTSEDSAVYYCVRGYYSNWYFDVWGTGTTVTVSS VL: DVLMTQTPLSLPVSLGDQASISCRSSQSIVHSNGKTYLEWYLQKPGQSPKLLIYKVSNRFSGVPDRFSGSGSGTDFTLKISRVEAEDLGVYYCFQGSHVPFTFGSGTKLEIKR
4. F1.41.17 (antibody, human IgG1, kappa, V domains shown, Human-murine chimeric antibody) VH: EVQLVESGGDSVKPGGSLKLSCAASGFTFSSYGMSWVRQTPDKRLEWVATINSGGSYTYYQDSVKGRFTISRDNAKNTLYLQMSSLKSEDTAIYYCVRHHYGSSYDYFDYWGQGTTLTVSS VL: DIVMTQAAPSVPVMPGESVSISCRSSKSLLHSNGNTHLYWFLQRPGQSPQLLIYRMSNLASGVPDRFSGSGSGTAFTLRISRVEAEDVGVYYCMQHLEYPLTFGAGTKLELKR
5. F1.145.22 (antibody, human IgG1, kappa, V domains shown, Human-murine chimeric antibody) VH: QVQLQQSGTDLARPGASVKLSCKASGYTFTSFGISWVKQRTGQGLEWIGEIYPRSGSPYYNEKFTGKATLTADKSSSTAYMELRSLTSEDSAVYFCAKDFGSSYVFDYWGQGTALTVSS VL: DIQMTQSPASLSASVGETVTITCRASENIYSYLTWYQQKQGKSPQLLVYNAKTLAEGVPSRFSGSGSGTQFSLKINSLQPEDFGTYYCQHHYGTPPTFGTGTKLDLKR
6. F2.55.11 (antibody, human IgG1, kappa, V domains shown, Human-murine chimeric antibody) VH: EVKLVESGGGLVKPGGSLKLSCAASGLTFSTCTMSWVRQTPAKRLEWVATISSGGGNTYYPDSVKGRFTISRDNARNTLYLQMSSLRSEDTAMYYCVRLYYDGSPYAMDYWGQGTSVTVSS VL: DIQMTQTTSSLSASLGDRVTISCRASQDISNHLNWYQQKPDGTVKLLIYYTSRLHSGVPSRFSGSGSGTDYSLTISNLEQEDIATYFCQQDSKPPPTFGSGTKLEIKR
7. F1.110.24 (antibody, human IgG1, kappa, V domains shown, Human-murine chimeric antibody) VH: EVKLVESGGGLVQPGGSLKLSCAASGFTFSDFYMYWVRQTPEKRLEWVAFISNGGGSTYYPDTVKGRFTISRDNVKNTLYLQMSRLKSEDTAMYYCARPDTSWFAYWGQGSLVTVSA VL: DIQMTQTTSSLSASLGDRVTISCRASQDIDNYLNWYQQKPDGTVKVLISYTSRLHSGVPSRFSGSGSGTDYSLTISNLEQEDIATYFCQQGNTLPWTFGGGTKLEIKR

[A]
1. 0.14
2. 0.58
3. 0.27
4. 0.11
5. 0.25
6. 0.49
7. 0.06

[Q] Tell me the measured OD450 at 0.01 nM of F1.57.21 (antibody, human IgG1, kappa, V domains shown, Human-murine chimeric antibody) VH: QVQLQQSGAELARPGASVKLSCKASGYTFTSYGISWVKQITGQGLEWIGEIYPRSESTYYNEKFKGKATLTADKSSSTAYMELRSLTSEDSAVYFCARDYGNIYSFAYWGQGTLVTVSA VL: DIQMTQSPASLSASVGETVTITCRTSENIYSYLAWYQQKQGKSPQLLVYNAKTLAEGVPSRFSGSGSGTQFSLKINSLQPEDFGSYYCQHHYGTPLTFGAGTKLELKR , please.
[A] 0.14
